Molecular target: Death-associated protein kinase 1 (Homo sapiens, UniProt P53355)
Assay: Inhibition of recombinant human N-terminal GST-tagged DAPK1 catalytic domain (1 to 363 residues) expressed in baculovirus expression system by Adapta kinase assay
QUANTITY: IC50
Returns: string containing the number followed by the unit.

Write IC50 of Cc1n[nH]cc1-c1cc2nc([C@@H]3CCCCN3)[nH]c(=O)c2s1.Cl.Cl ; system used: Death-associated protein kinase 1 (Homo sapiens, UniProt P53355)
203 nM

* * *

Molecular target: Cell division cycle 7-related protein kinase (Homo sapiens, UniProt O00311)
Assay: Binding affinity to CDC7 (unknown origin) assessed as equilibrium dissociation constant
QUANTITY: Kd (nM)
API: value field is a number in nM; no unit string.

Give Kd for Cc1[nH]ncc1-c1cc2nc([C@@H]3CC4CCN3CC4)[nH]c(=O)c2s1
0.424

* * *

Target: Homeodomain-interacting protein kinase 4 (Homo sapiens, UniProt Q8NE63)
Experiment: Inhibition of recombinant full-length human N-terminal GST-tagged HIPK4 expressed in baculovirus expression system by Z'-LYTE assay
QUANTITY: IC50

Respond only with IC50 recorded for Cc1n[nH]cc1-c1cc2nc([C@@H]3CCCCN3)[nH]c(=O)c2s1.Cl.Cl
176 nM

* * *

Molecular target: CDC7/DBF4 (Cell division cycle 7-related protein kinase/Activator of S phase kinase) (Homo sapiens, UniProt O00311)
Experiment: Inhibition of N-terminal GST-fused full-length human CDC7 (1 to 574 end residues)/DBF4 (1 to 674 residues) expressed in baculovirus expression system using MCM2 as substrate in presence of 50 uM ATP by HTRF transcreener ADP assay
Please respond with reported IC50 for every item in the list.

Fill in IC50 for record Cc1[nH]ncc1-c1cc2nc([C@@H]3CC4CCN3CC4)[nH]c(=O)c2s1
0.043 µM

Quick one: give measured IC50 for Cc1n[nH]cc1-c1cc2nc(C34CC(CN3)C4)[nH]c(=O)c2s1
0.077 µM

Output measured IC50 for this item: O=c1[nH]c([C@@H]2CCCCN2)nc2cc(-c3c[nH]nc3C(F)(F)F)sc12
0.072 µM

Let me know recorded IC50 for Cc1n[nH]cc1-c1cc2nc([C@@H]3CCCCN3)[nH]c(=O)c2s1.Cl.Cl , thanks.
0.12 µM

* * *

Target: UniProt Q13627
Assay: Inhibition of recombinant full-length human GST-tagged DYRK1A expressed in baculovirus expression system by Z'-LYTE assay
QUANTITY: pIC50
Expect pIC50 as a plain number equal to -log10 of the molar concentration.

Provide measured pIC50 on UniProt Q13627 for Cc1n[nH]cc1-c1cc2nc([C@@H]3CCCCN3)[nH]c(=O)c2s1.Cl.Cl please.
7.23

* * *

Biological target: Cell division cycle 7-related protein kinase (Homo sapiens)
Assay: Inhibition of ATP-specific reporter probe binding to CDC7 (unknown origin) assessed as equilibrium dissociation constant incubated for 60 mins by proteros reporter displacement assay
QUANTITY: Kd (nM)
Write it as a number; the unit nM goes unstated.

# return recorded Kd for entry Cc1n[nH]cc1-c1cc2nc([C@@H]3CCCCN3)[nH]c(=O)c2s1.Cl.Cl
1.96

* * *

Biological target: CDC7/DBF4 (Cell division cycle 7-related protein kinase/Activator of S phase kinase) (Homo sapiens, UniProt O00311)
Assay: Inhibition of N-terminal GST-fused full-length human CDC7 (1 to 574 end residues)/DBF4 (1 to 674 residues) expressed in baculovirus expression system using MCM2 as substrate preincubated with enzyme for 10 mins prior to 1 uM ATP addition by HTRF transcreener ADP assay
pIC50: −log10 of the molar value.
Outcome: MET for pIC50 of at least 9; NOT MET for anything lower.

Hi, just wondering whether O=c1[nH]c([C@@H]2CCCCN2)nc2cc(-c3c[nH]nc3C(F)(F)F)sc12 shows pIC50 of 9 or higher.
MET

Record Cc1n[nH]cc1-c1cc2nc([C@@H]3CCCN3C)[nH]c(=O)c2s1 ; criterion: pIC50 no lower than 9. Met?
NOT MET

Could you please find out whether Cc1n[nH]cc1-c1cc2nc(C34CCC(CC3)N4)[nH]c(=O)c2s1 has pIC50 that meets 9 or exceeds it?
MET

Identify whether the reported pIC50 of the following molecule is 9 or greater: Cc1n[nH]cc1-c1cc2nc([C@@H]3CCCCN3)[nH]c(=O)c2s1.Cl.Cl
MET

Origin of measurements: ChEMBL document CHEMBL4321874
